Assay: growth inhibition of fluconazole-resistant C. albicans, confirmation, CaCi-2 isolate, dry powder retest, no file (AID 493081)
Conditions: C. albicans CaCi-2 (fluconazole-resistant clinical isolate) + fluconazole, Alamar Blue, 48 h; at 12 µM (top of the series)
Activity calls are given as the source filed them.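 The calls were made as follows: active = fitted half-maximal dose of growth inhibition at or below ten times the top valid tested dose; inconclusive = flat fit with moderate inhibition, or poor fit quality; inactive = the rest.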
Below, each entry is listed alongside its reported activity change, negative = growth inhibition.

O=C(Cn1c2ccccc2c2ccncc21)N1CCCCC1	-31.9% (inactive)

Tell me the measured activity change, negative = growth inhibition of "COC(=O)C(C)(C)n1nc(-c2ccccc2)c2ccccc21" , please. -6.64% (inactive)

Consider next the compound "O=C(O)Cn1nc(-c2ccccc2)c2ccccc21" in the same way. -9.2% (inactive)

Another compound to check: "COc1ccc(-c2n[nH]c3ccccc23)cc1" -24.1% (inactive)

Here is the next compound: "FC(F)(F)c1ccc(-c2n[nH]c3ccccc23)cc1" -27.3% (inactive)

Also check "COC(=O)CCCn1nc(-c2ccccc2)c2ccccc21" -23.8% (inactive)
